# conditions-used: in isopropanol, 323.15 K
quantity-measured: solubility (mole fraction)
Reply briefly: the number, and no unit.

Return the recorded solubility (mole fraction) value; entry: Cn1cc[nH]c1=S
0.152

* * *

# conditions-used: in n-propanol, 303.15 K
quantity-measured: solubility (mole fraction)
Response field accepts a number only; no unit should be typed.

Determine its reported solubility (mole fraction): Cn1cc[nH]c1=S
0.0663

* * *

# conditions-used: in n-butanol, 318.15 K
quantity-measured: solubility (mole fraction)
The reply should be a number, written without any unit.

Consider the compound Cn1cc[nH]c1=S and give its recorded solubility (mole fraction).
0.124

* * *

# conditions-used: in ethyl acetate, 298.15 K
quantity-measured: solubility (mole fraction)
No unit in the answer, only the number.

For the compound Cn1cc[nH]c1=S , report solubility (mole fraction).
0.0246

* * *

# conditions-used: in acetonitrile, 293.15 K
quantity-measured: solubility (mole fraction)

Check the records and state solubility (mole fraction) for Cn1cc[nH]c1=S
0.0338

* * *

# conditions-used: in acetone, 308.15 K
quantity-measured: solubility (mole fraction)
Respond with the number and no other words.

Please report the measured solubility (mole fraction) for Cn1cc[nH]c1=S
0.124

* * *

# conditions-used: in isopropanol, 308.15 K
quantity-measured: solubility (mole fraction)
Note: the reply should be a number with no unit written.

Provide only the value of recorded solubility (mole fraction) for Cn1cc[nH]c1=S
0.0788

* * *

# conditions-used: in ethanol, 298.15 K
quantity-measured: solubility (mole fraction)
Please give the numeric answer without any surrounding text.

Return solubility (mole fraction) for the following compound: Cn1cc[nH]c1=S
0.0645

* * *

# conditions-used: in THF, 298.15 K
quantity-measured: solubility (mole fraction)

Consider the molecule Cn1cc[nH]c1=S . State its measured solubility (mole fraction).
0.0841

* * *

# conditions-used: in ethanol, 308.15 K
quantity-measured: solubility (mole fraction)
Keep it simple and answer with nothing but the number.

For the molecule Cn1cc[nH]c1=S , give its measured solubility (mole fraction) value.
0.0968

* * *

# conditions-used: in THF, 323.15 K
quantity-measured: solubility (mole fraction)
When you answer, write just the number.

Kindly indicate its recorded solubility (mole fraction). Item: Cn1cc[nH]c1=S
0.169

* * *

# conditions-used: in acetone, 318.15 K
quantity-measured: solubility (mole fraction)
Please reply with the number alone, leaving off any unit.

Provide one value: measured solubility (mole fraction) of Cn1cc[nH]c1=S
0.167

* * *

# conditions-used: in 1,4-dioxane, 303.15 K
quantity-measured: solubility (mole fraction)

Fill in reported solubility (mole fraction) for this entry: Cn1cc[nH]c1=S
0.102

* * *

# conditions-used: in methanol, 288.15 K
quantity-measured: solubility (mole fraction)
Output: the number by itself.

Supply solubility (mole fraction) value. Item: Cn1cc[nH]c1=S
0.084

* * *

# conditions-used: in methyl acetate, 298.15 K
quantity-measured: solubility (mole fraction)
I only need the number, thanks.

Supply reported solubility (mole fraction) belonging to this compound: Cn1cc[nH]c1=S
0.0521

* * *

# conditions-used: in isopropanol, 288.15 K
quantity-measured: solubility (mole fraction)
// return just the number, without any unit appended

Name the recorded solubility (mole fraction) of the item Cn1cc[nH]c1=S in your answer.
0.029

* * *

# conditions-used: in isopropanol, 278.15 K
quantity-measured: solubility (mole fraction)
Keep it simple and answer with nothing but the number.

For the compound Cn1cc[nH]c1=S , report solubility (mole fraction).
0.0168

* * *

# conditions-used: in acetone, 313.15 K
quantity-measured: solubility (mole fraction)
Lab note: record just the number, no unit beside it.

Give the reported value of solubility (mole fraction) for this record: Cn1cc[nH]c1=S
0.147

* * *

# conditions-used: in n-propanol, 278.15 K
quantity-measured: solubility (mole fraction)

// Input: Cn1cc[nH]c1=S . Output its solubility (mole fraction) only.
0.0261

* * *

# conditions-used: in methyl acetate, 318.15 K
quantity-measured: solubility (mole fraction)

For the compound Cn1cc[nH]c1=S , report solubility (mole fraction).
0.0936

* * *

# conditions-used: in isopropanol, 298.15 K
quantity-measured: solubility (mole fraction)
Lab note: jot down the number only; don't add units.

Give reported solubility (mole fraction) value for Cn1cc[nH]c1=S
0.0478

* * *

# conditions-used: in n-propanol, 288.15 K
quantity-measured: solubility (mole fraction)

Note down solubility (mole fraction) recorded for Cn1cc[nH]c1=S
0.0385

* * *

# conditions-used: in 1,4-dioxane, 278.15 K
quantity-measured: solubility (mole fraction)
Reply briefly: the number, and no unit.

Identify measured solubility (mole fraction) corresponding to Cn1cc[nH]c1=S
0.0435

* * *

# conditions-used: in ethyl acetate, 318.15 K
quantity-measured: solubility (mole fraction)
Respond numerically, and do not add a unit to the figure.

Query solubility (mole fraction) for Cn1cc[nH]c1=S
0.038

* * *

# conditions-used: in ethyl acetate, 303.15 K
quantity-measured: solubility (mole fraction)

Recall and state the measured solubility (mole fraction) for Cn1cc[nH]c1=S .
0.0273

* * *

# conditions-used: in acetone, 278.15 K
quantity-measured: solubility (mole fraction)
// no unit string in output, number only

Identify the reported solubility (mole fraction) for the following entry. Cn1cc[nH]c1=S
0.0425

* * *

# conditions-used: in ethanol, 323.15 K
quantity-measured: solubility (mole fraction)
API doc: respond with a numeric literal and nothing else, no unit.

Answer with the recorded solubility (mole fraction) of Cn1cc[nH]c1=S only.
0.167

* * *

# conditions-used: in 1,4-dioxane, 323.15 K
quantity-measured: solubility (mole fraction)

Return reported solubility (mole fraction). Input compound: Cn1cc[nH]c1=S
0.187

* * *

# conditions-used: in isobutanol, 313.15 K
quantity-measured: solubility (mole fraction)
I only need the number, thanks.

Output solubility (mole fraction) of Cn1cc[nH]c1=S
0.0809

* * *

# conditions-used: in acetone, 293.15 K
quantity-measured: solubility (mole fraction)
Answer with a number only.

Give solubility (mole fraction) for the following molecule: Cn1cc[nH]c1=S
0.0749

* * *

# conditions-used: in acetonitrile, 298.15 K
quantity-measured: solubility (mole fraction)

Tell me its solubility (mole fraction) given Cn1cc[nH]c1=S as the entry.
0.0416

* * *

# conditions-used: in acetonitrile, 318.15 K
quantity-measured: solubility (mole fraction)
# print the numeric value only

Answer with the recorded solubility (mole fraction) of Cn1cc[nH]c1=S only.
0.101

* * *

# conditions-used: in methyl acetate, 278.15 K
quantity-measured: solubility (mole fraction)
Field format: numeric only.

Give reported solubility (mole fraction) value for Cn1cc[nH]c1=S
0.0288

* * *

# conditions-used: in n-butanol, 313.15 K
quantity-measured: solubility (mole fraction)
Just the number.

Find the measured solubility (mole fraction) of Cn1cc[nH]c1=S and report it.
0.102

* * *

# conditions-used: in methyl acetate, 293.15 K
quantity-measured: solubility (mole fraction)
Output spec: single numeric token, no unit.

For the compound Cn1cc[nH]c1=S , report solubility (mole fraction).
0.0452

* * *

# conditions-used: in isobutanol, 298.15 K
quantity-measured: solubility (mole fraction)
Just the number, please, no unit attached.

Report measured solubility (mole fraction); entry is Cn1cc[nH]c1=S
0.0439

* * *

# conditions-used: in methanol, 298.15 K
quantity-measured: solubility (mole fraction)
Form: value (number only, do not type unit).

Name the recorded solubility (mole fraction) of the item Cn1cc[nH]c1=S in your answer.
0.125

* * *

# conditions-used: in n-propanol, 298.15 K
quantity-measured: solubility (mole fraction)
Simply state the number, no unit and no words.

Note down solubility (mole fraction) recorded for Cn1cc[nH]c1=S
0.0558

* * *

# conditions-used: in methanol, 303.15 K
quantity-measured: solubility (mole fraction)
Enter the number alone.

State its solubility (mole fraction): Cn1cc[nH]c1=S
0.148

* * *

# conditions-used: in THF, 283.15 K
quantity-measured: solubility (mole fraction)
// print number alone

Note down solubility (mole fraction) recorded for Cn1cc[nH]c1=S
0.0542

* * *

# conditions-used: in n-butanol, 298.15 K
quantity-measured: solubility (mole fraction)
Give your answer as a number; write no unit.

Please indicate solubility (mole fraction) recorded for Cn1cc[nH]c1=S
0.0528

* * *

# conditions-used: in methanol, 313.15 K
quantity-measured: solubility (mole fraction)

Look up and report measured solubility (mole fraction) for this entry: Cn1cc[nH]c1=S
0.21

* * *

# conditions-used: in ethanol, 318.15 K
quantity-measured: solubility (mole fraction)
Note: the reply should be a number with no unit written.

Output measured solubility (mole fraction) for this item: Cn1cc[nH]c1=S
0.139

* * *

# conditions-used: in isobutanol, 283.15 K
quantity-measured: solubility (mole fraction)

Tell me measured solubility (mole fraction) for Cn1cc[nH]c1=S please.
0.0233

* * *

# conditions-used: in methyl acetate, 313.15 K
quantity-measured: solubility (mole fraction)
Give your answer as a number; write no unit.

Using the record for Cn1cc[nH]c1=S , state its measured solubility (mole fraction).
0.0817

* * *

# conditions-used: in methanol, 318.15 K
quantity-measured: solubility (mole fraction)
Output spec: single numeric token, no unit.

Name the recorded solubility (mole fraction) of the molecule listed here: Cn1cc[nH]c1=S
0.244
